Tested Target: BCL2A1/BID (Homo sapiens)
Sequence (Q16548 whole entry): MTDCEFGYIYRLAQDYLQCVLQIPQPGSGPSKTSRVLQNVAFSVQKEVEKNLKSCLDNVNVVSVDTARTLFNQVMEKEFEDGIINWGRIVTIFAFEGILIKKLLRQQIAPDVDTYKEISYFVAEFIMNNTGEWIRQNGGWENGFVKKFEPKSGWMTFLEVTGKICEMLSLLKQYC
Sequence (P55957 whole entry, further chain): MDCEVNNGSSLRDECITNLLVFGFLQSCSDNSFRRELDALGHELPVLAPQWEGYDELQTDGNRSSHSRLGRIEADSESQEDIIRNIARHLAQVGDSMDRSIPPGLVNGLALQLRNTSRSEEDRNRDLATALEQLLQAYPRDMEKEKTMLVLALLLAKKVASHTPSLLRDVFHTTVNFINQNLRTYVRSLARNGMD
Protocol Details: Inhibition of BFL-1/ BH3 (unknown origin) interaction incubated for 2 hrs by TR-FRET assay
pIC50: −log10 of the molar value.
Threshold check on pIC50: at or above 8 gives 1 (yes), strictly below gives 0 (no).

IN: Check if pIC50 >= 8 (inclusive). Item: C=CC(=O)N(c1ccc(O[C@@H]2CC[C@@H](NC(=O)N[C@@H]3CCS(=O)(=O)C3)C2)c(F)c1)[C@@H](CC(N)=O)c1ccc(Cl)cc1
OUT: 1 (yes)

IN: Check if pIC50 >= 8 (inclusive). Item: C=CC(=O)N(c1ccc(O[C@@H]2CC[C@@H](N)C2)cc1)[C@H](CNS(C)(=O)=O)c1ccc(Cl)cc1
OUT: 0 (no)

IN: Check if pIC50 >= 8 (inclusive). Item: C=CC(=O)N(c1ccc(O[C@@H]2CC[C@@H](N)C2)cc1)[C@@H](CC(C)(C)O)c1ccc(Cl)cc1
OUT: 0 (no)

----------
Protocol Details: Metabolic stability in human hepatocytes assessed as intrinsic clearance measured per 10^6 cells
Format: ADME, cell-based, Hepatocyte
Condition Context: read-out: CLH
hepatocyte CLint values by entry
// return numeric value only (unit: µL/min/1e6 cells, not printed)

Worked cases, hepatocyte CLint given:
C=CC(=O)N(c1ccc(O[C@@H]2CC[C@@H](NC(=O)NCCN(C)C)C2)c(Cl)c1)[C@@H](C)c1ccc(Cl)cc1 :: 9.8
C[C@@H](c1ccc(Cl)cc1)N(C(=O)/C=C/CN(C)C)c1ccc(O[C@@H]2CC[C@@H](NC(=O)NC3CS(=O)(=O)C3)C2)c(F)c1 :: 2.6
C=CC(=O)N(c1ccc(O[C@@H]2CC[C@@H](N)C2)c(F)c1)[C@@H](CC(C)(C)O)c1ccc(Cl)cc1 :: 5.9

Please examine the following record next.
IN: Name the reported hepatocyte CLint value associated with the molecule C=CC(=O)N(c1ccc(O[C@@H]2CC[C@@H](NC(=O)N[C@@H]3CCS(=O)(=O)C3)C2)c(Cl)c1)[C@@H](C)c1ccc(Cl)cc1
OUT: 11

----------
IC50 values by entry
Tested Target: BCL2A1/BID (Homo sapiens)
Protocol Details: Inhibition of BFL-1/ BH3 (unknown origin) interaction incubated for 2 hrs by TR-FRET assay
// return numeric value only (unit: nM, not printed)

Worked cases, IC50 given:
C=CC(=O)N(c1ccc(O[C@@H]2CC[C@@H](N)C2)c(F)c1)[C@@H](CC(C)(C)O)c1ccc(Cl)cc1 :: 11
C=CC(=O)N(c1ccc(O[C@@H]2CC[C@@H](N)C2)cc1)[C@@H](C[C@H](C)O)c1ccc(Cl)cc1 :: 18
C=CC(=O)N(c1ccc(O[C@@H]2CC[C@@H](NC(=O)NCC(C)(C)N(C)C)C2)c(F)c1)[C@@H](C)c1ccc(Cl)cc1 :: 3.9

Please examine the following record next.
IN: Please provide the recorded IC50 for CC#CC(=O)N(c1ccc(O[C@@H]2CC[C@@H](N)C2)cc1)[C@@H](C)c1ccc(Cl)cc1 , tested on BCL2A1/BID (Homo sapiens).
OUT: 300
